Each record here notes measured pIC50.
- Tested on: MCF7
- Procedure text: Antitumor activity against human mammary carcinoma mitoxantrone-resistant […] breast cell line.
- Type: functional, cell-based
pIC50: −log10 of the molar value.

[
  {
    "Compound": "CN(C)CCN1C(=O)c2cccc3cc4ccc(F)cc4c(c23)C1=O",
    "pIC50": 7.92
  },
  {
    "Compound": "CN(C)CCN1C(=O)c2cccc3cc4ccc(C#N)cc4c(c23)C1=O",
    "pIC50": 7.92
  },
  {
    "Compound": "CN(C)CCN1C(=O)c2c(O)ccc3cc4ccccc4c(c23)C1=O",
    "pIC50": 5.82
  },
  {
    "Compound": "CN(C)CCN1C(=O)c2cccc3cc4cccc(O)c4c(c23)C1=O",
    "pIC50": 7.10
  },
  {
    "Compound": "CCOc1ccc2cc3cccc4c3c(c2c1)C(=O)N(CCN(C)C)C4=O",
    "pIC50": 7.82
  },
  {
    "Compound": "CN(C)CCN1C(=O)c2cccc3cc4ccc([N+](=O)[O-])cc4c(c23)C1=O",
    "pIC50": 7.85
  },
  {
    "Compound": "CN(C)CCN1C(=O)c2cccc3cc4cc(Cl)ccc4c(c23)C1=O",
    "pIC50": 7.17
  },
  {
    "Compound": "COc1ccc2c3c4c(cccc4cc2c1)C(=O)N(CCN(C)C)C3=O",
    "pIC50": 7.02
  },
  {
    "Compound": "CN(C)CCNc1ccc2cc3ccccc3c3c2c1C(=O)N(CCN(C)C)C3=O",
    "pIC50": 6.64
  },
  {
    "Compound": "Cc1ccc2cc3cccc4c3c(c2c1)C(=O)N(CCN(C)C)C4=O",
    "pIC50": 7.05
  },
  {
    "Compound": "CN(C)CCN1C(=O)c2cccc3cc(N)cc(c23)C1=O [AMONAFIDE]",
    "pIC50": 5.92
  },
  {
    "Compound": "CN(C)CCN1C(=O)c2cccc3cc4cccc(Cl)c4c(c23)C1=O",
    "pIC50": 6.92
  },
  {
    "Compound": "CN(C)CCN1C(=O)c2cccc3cc4ccc(-c5ccccc5)cc4c(c23)C1=O",
    "pIC50": 7.48
  },
  {
    "Compound": "Cc1ccc2cc3ccccc3c3c2c1C(=O)N(CCN(C)C)C3=O",
    "pIC50": 6.85
  }
]

* * *

- Test system: WiDr
- Procedure text: Activity against human colon carcinoma sensitive WiDr cell line.
- Format: functional, cell-based

[
  {
    "Record smiles": "CN(C)CCN1C(=O)c2cccc3cc4c(O)cccc4c(c23)C1=O",
    "IC50 [µM]": 0.13
  },
  {
    "Record smiles": "CN(C)CCNc1ccc2cc3ccccc3c3c2c1C(=O)N(CCN(C)C)C3=O",
    "IC50 [µM]": 0.4
  },
  {
    "Record smiles": "COc1ccc2cc3cccc4c3c(c2c1)C(=O)N(CCN(C)C)C4=O",
    "IC50 [µM]": 0.04
  },
  {
    "Record smiles": "CN(C)CCN1C(=O)c2cccc3cc4ccc(F)cc4c(c23)C1=O",
    "IC50 [µM]": 0.017
  },
  {
    "Record smiles": "COc1cccc2c3c4c(cccc4cc12)C(=O)N(CCN(C)C)C3=O",
    "IC50 [µM]": 0.009
  },
  {
    "Record smiles": "CN(C)CCN1C(=O)c2cccc3cc4cc(Cl)ccc4c(c23)C1=O",
    "IC50 [µM]": 0.1
  }
]

* * *

- Tested on: MCF7
- Procedure text: Compound was tested for antitumor activity against Human mammary carcinoma sensitive cell line ([…] breast).
- Format: functional, cell-based

[
  {
    "Record smiles": "Cc1ccc2cc3ccccc3c3c2c1C(=O)N(CCN(C)C)C3=O",
    "IC50 / nM": 390
  }
]

* * *

- Tested on: A549
- Procedure text: Activity against A549 cancer cell line.
- Type: functional, cell-based
- Test settings: Homo sapiens
pIC50: −log10 of the molar value.
Recorded pIC50 determines the label; the label ranges are range A (below 7), range B (7 to below 8), range C (8 or more)

[
  {
    "Compound": "CN(C)CCN1C(=O)c2cccc3cc4c(O)cccc4c(c23)C1=O",
    "Experimental system": "A549",
    "Qualitative label": "range B"
  },
  {
    "Compound": "CN(C)CCN1C(=O)c2cccc3cc4cccc(O)c4c(c23)C1=O",
    "Experimental system": "A549",
    "Qualitative label": "range B"
  },
  {
    "Compound": "CN(C)CCN1C(=O)c2cccc3cc4ccc(I)cc4c(c23)C1=O",
    "Experimental system": "A549",
    "Qualitative label": "range B"
  },
  {
    "Compound": "CN(C)CCN1C(=O)c2c(O)ccc3cc4ccccc4c(c23)C1=O",
    "Experimental system": "A549",
    "Qualitative label": "range A"
  },
  {
    "Compound": "CN(C)CCN1C(=O)c2cccc3cc4ccc(F)cc4c(c23)C1=O",
    "Experimental system": "A549",
    "Qualitative label": "range C"
  },
  {
    "Compound": "CN(C)CCN1C(=O)c2cccc3cc4c(Cl)cccc4c(c23)C1=O",
    "Experimental system": "A549",
    "Qualitative label": "range B"
  },
  {
    "Compound": "CN(C)CCN1C(=O)c2cccc3cc4ccc(O)cc4c(c23)C1=O",
    "Experimental system": "A549",
    "Qualitative label": "range C"
  },
  {
    "Compound": "CN(C)CCN1C(=O)c2cccc3cc(N)cc(c23)C1=O [AMONAFIDE]",
    "Experimental system": "A549",
    "Qualitative label": "range A"
  }
]

* * *

Each record here notes measured IC50.
- Species on record: Rattus norvegicus
- Procedure text: Cardiotoxicity measured by the ATP/protein ratio compared with untreated controls using neonatal rat heart myocyte assay.
- Type: functional

[
  {
    "Molecule": "CN(C)CCN1C(=O)c2cccc3cc4ccc(Cl)cc4c(c23)C1=O",
    "Unit descriptor": "nM",
    "Relation operator": "=",
    "IC50": 771
  },
  {
    "Molecule": "Cc1ccc2cc3ccccc3c3c2c1C(=O)N(CCN(C)C)C3=O",
    "Unit descriptor": "nM",
    "Relation operator": "=",
    "IC50": 1360
  },
  {
    "Molecule": "CN(C)CCN1C(=O)c2cccc3cc4cc(Cl)ccc4c(c23)C1=O",
    "Unit descriptor": "nM",
    "Relation operator": "=",
    "IC50": 1540
  },
  {
    "Molecule": "CN(C)CCN1C(=O)c2cccc3cc4ccc(I)cc4c(c23)C1=O",
    "Unit descriptor": "nM",
    "Relation operator": "=",
    "IC50": 4790
  },
  {
    "Molecule": "CN(C)CCN1C(=O)c2cccc3cc4ccc(O)cc4c(c23)C1=O",
    "Unit descriptor": "nM",
    "Relation operator": ">",
    "IC50": 27000
  },
  {
    "Molecule": "CN(C)CCN1C(=O)c2cccc3cc4ccc([N+](=O)[O-])cc4c(c23)C1=O",
    "Unit descriptor": "nM",
    "Relation operator": "=",
    "IC50": 801
  },
  {
    "Molecule": "CN(C)CCN1C(=O)c2cccc3cc4c(O)cccc4c(c23)C1=O",
    "Unit descriptor": "nM",
    "Relation operator": "=",
    "IC50": 2950
  },
  {
    "Molecule": "CN(C)CCN1C(=O)c2c(O)ccc3cc4ccccc4c(c23)C1=O",
    "Unit descriptor": "nM",
    "Relation operator": ">",
    "IC50": 135000
  },
  {
    "Molecule": "CN(C)CCN1C(=O)c2c(Cl)ccc3cc4ccccc4c(c23)C1=O",
    "Unit descriptor": "nM",
    "Relation operator": "=",
    "IC50": 900
  },
  {
    "Molecule": "CN(C)CCN1C(=O)c2cccc3cc(N)cc(c23)C1=O [AMONAFIDE]",
    "Unit descriptor": "nM",
    "Relation operator": "=",
    "IC50": 48400
  },
  {
    "Molecule": "CNCCN1C(=O)c2cccc3cc4ccc(Cl)cc4c(c23)C1=O",
    "Unit descriptor": "nM",
    "Relation operator": "=",
    "IC50": 1430
  }
]

* * *

Each record here notes measured pIC50.
- Tested on: A549
- Procedure text: Activity against A549 cancer cell line.
- Format: functional, cell-based
- Test settings: Homo sapiens
pIC50: −log10 of the molar value.

[
  {
    "Record smiles": "CCOc1ccc2cc3cccc4c3c(c2c1)C(=O)N(CCN(C)C)C4=O",
    "pIC50": 7.21
  },
  {
    "Record smiles": "COc1ccc2cc3cccc4c3c(c2c1)C(=O)N(CCN(C)C)C4=O",
    "pIC50": 7.51
  },
  {
    "Record smiles": "COc1ccc2c3c4c(cccc4cc2c1)C(=O)N(CCN(C)C)C3=O",
    "pIC50": 7.57
  },
  {
    "Record smiles": "CN(C)CCNc1ccc2cc3ccccc3c3c2c1C(=O)N(CCN(C)C)C3=O",
    "pIC50": 7.11
  }
]
